Data provenance is PubChem BioAssay (NCI).

Tested on: KM12 colon
Experiment: NCI tumour cell line growth inhibition, 48 h
Where a SMILES comes first, the peptide text is derived from it. The star is where a group is joined. OBn = c1ccc(CO*)cc1
readout.label: TGI

- NC(CCC(=O)OCc1ccccc1)C(=O)NC(CCC(=O)OCc1ccccc1)C(=O)O (stereo not drawn) (H-Glu(OBn)-Glu(OBn)-OH; configuration not given here): > 100 µM
- CN(CCO)c1nc2c(c(=O)[nH]1)CNCC2: > 100 µM
- Cc1cc(C)nc(SC2=C(Nc3cccc(Cl)c3)C(=O)N(Cc3ccccc3)C2=O)n1: > 170 µM

* * *

Tested on: SK-MEL-5 melanoma
Assay: NCI tumour cell line growth inhibition, 48 h
readout.label: TGI

• C=C(Cl)C(Br)(CBr)CCC(Br)C(C)(C)Br (stereo not given) = > 10 µM
• CCCCCCCCCC(=O)OCC1OC(n2cc(F)c(=O)[nH]c2=O)C(N)C(OC(=O)CCCCCCCCC)C1O (stereo not given) = 37.4 µM
• COC(=O)C1=CC2OC13CC1CCC3(C2=O)C1(C)C (stereo not given) = 30.7 µM
• CC1=CCC[C@]2(C)C1=CC(=O)O[C@H]2c1ccoc1 = > 100 µM
• Cc1cc(C)n(-c2c(O)ccc(O)c2-n2nc(C)cc2C)n1 = > 100 µM
• CC1(C)N=C(N)N=C(N)N1c1cccc(OCc2cccc([N+](=O)[O-])c2)c1 = > 88.7 µM
• CC(C)(O)[C@H]1[C@@H]2OC(=O)[C@H]1[C@]1(O)C[C@H]3OC34C(=O)O[C@H]2[C@@]41C (stereo not given in full) (tested in a mixture with another compound) = > 100 µM
• O=C1/C(=C/c2ccccc2)CCCC/C1=C\c1ccccc1 = 70.4 µM
• ON(CCc1ccccn1)Cc1ccccc1 = > 100 µM
• Cc1cc(NCC2CC/C(=C\C=C\c3ccccc3)C2=O)no1 (stereo not given) = > 100 µM
• COc1ccc(-n2cnc3c(NC(C)(C)C(=O)O)ncnc32)cc1 = > 100 µM
• CC(=O)Nc1ccc(/C=C/C(=O)c2sc(C(N)=S)nc2C)cc1 = > 100 µM
• C=CC(c1ccccc1)C1(O)c2cccc(O)c2C(=O)c2c(O)cccc21 (stereo not given) = 32 µM
• O=C(O)c1cccc(CC(Br)C(=O)O)c1 (stereo not given) = > 100 µM
• O=C1OC2(c3ccc(O)cc3Oc3cc(O)ccc32)c2c1c(-c1ccccc1)c(-c1ccccc1)c(-c1ccccc1)c2-c1ccccc1 = 54 µM

* * *

Tested on: LOX IMVI melanoma
Assay: NCI tumour cell line growth inhibition, 48 h
Where a SMILES comes first, the peptide text is derived from it. The star is where a group is joined. OBn = c1ccc(CO*)cc1
readout.label: TGI

• O=C(CC(=O)C(F)(F)F)c1csc2ccccc12 = > 100 µM
• O=C(/C=C/c1ccccc1)CCC1C(=O)NC(=O)NC1=O = > 100 µM
• O=C(Cn1ccnc1[N+](=O)[O-])NCC(F)(F)C(F)(F)F = > 100 µM
• COc1cc(C(=O)n2nc(N3CCN(C)CC3)c3cc(N)ccc32)cc(OC)c1OC = 17.1 µM
• S=C1NN=C2C(=C3CCCC4C5CCCCC5N2C34)N1 (stereo unspecified) = > 100 µM
• NC(CCC(=O)OCc1ccccc1)C(=O)NC(CCC(=O)OCc1ccccc1)C(=O)O (stereo unspecified) (H-Glu(OBn)-Glu(OBn)-OH; configuration not given here) = > 100 µM

* * *

Test system: OVCAR-4 ovarian
Test: NCI tumour cell line growth inhibition, 48 h
readout.label: TGI

• O=C(O)CCC1CCC(c2cc(F)ccc2F)(S(=O)(=O)c2ccc(Cl)cc2)CC1 (stereo unspecified) = > 100 µM
• CN1CCN(Cc2ccc(NC(=O)c3cncc(C#Cc4c(N)ncc5cc(F)ccc45)c3)cc2C(F)(F)F)CC1 = 1.38 µM
• CCOC(=O)C1C(c2ccc([N+](=O)[O-])cc2)NC(c2ccc([N+](=O)[O-])cc2)C(C(=O)OC)S1(=O)=O (stereo unspecified) = > 100 µM
• CCNc1nc(N2CC(=O)Nc3cc(OC)ccc32)c2ccccc2n1 = > 100 µM
• COc1cc(-c2nc3ccccc3s2)ccc1OCc1nc2n(n1)S(=O)(=O)c1ccccc1N2C = > 100 µM
• O=C1c2cccnc2C(=O)c2c1nc1ccccc1c2-c1cncc(-c2c3c(nc4ccccc24)C(=O)c2cccnc2C3=O)c1 = 1.91 µM
• Cc1c(Cl)ccc2c1NC(=O)C2(O)C1Cc2ccccc2C1=O (stereo unspecified) = > 100 µM
• O=C(O)Cc1[nH]cnc1C(=O)O = > 100 µM
• CN1CCC/C1=C1\C(=O)c2cccn2C1=O = > 100 µM
• COC(=O)c1c(C(=O)OC)c(C(c2ccccc2)c2ccccc2)n(-c2ccccc2)c1Cl = > 10 µM
• COC(=O)Nc1nc2ccc(Oc3ccc(NC(=O)Nc4cccc(Cl)c4)cc3)cc2[nH]1 = 8.19 µM

* * *

Reported values of TGI for individual entries
Tested on: MALME-3M melanoma
Assay: NCI tumour cell line growth inhibition, 48 h
readout.label: TGI

* O=C1/C(=C/C(Cl)=C/c2ccccc2)SC(=S)N1CCc1ccc(O)cc1 | 3 µM
* CSC(=S)NNC(=O)c1ccncc1 | 35.3 µM
* COc1ccc(CCN(C)C(=O)CC(C#N)(c2ccccc2)c2ccc(OC)c(OC)c2)cc1OC (stereo not given) | > 100 µM
* CO[C@H]1CC[C@@]2(C)C(=CC[C@H]3[C@@H]4C[C@H](O)C[C@@]4(C)CC[C@@H]32)C1 | 19.4 µM
* Cc1cc(NCC2CC/C(=C\C=C\c3ccccc3)C2=O)no1 (stereo not given) | > 100 µM
* CCCC(=O)NNc1[nH]c(-c2ccc(OC)cc2)cc1C(=O)OCC | 29.2 µM
* [N-]=[N+]=CC(=O)OCC(N)C(=O)O (stereo not given) | > 100 µM
* ON(CCc1ccccn1)Cc1ccccc1 | > 100 µM
* N=C(N)C1CN(CC=O)C(=O)NC1=O (stereo not given) | > 100 µM
* CCC(=C(c1ccc(OCc2ccccc2)cc1)c1ccc(OCc2ccccc2)cc1)c1ccc(OC)cc1 | > 100 µM
* CC1=[N+]([O-])C(C)(C)N(O)C1(C)C | > 100 µM
* C=CC1(c2ccc(Br)cc2)OCCCO1 | > 100 µM
* O=S1(=O)OCCCOS(=O)(=O)C1Br | > 100 µM
* CCOC(=O)/C=C1\Nc2ccccc2-n2nnnc21 | > 100 µM
* COc1ccc(OC)c2cc(C3(C)SCCCS3)ccc12 | > 100 µM
* COC(=O)c1c(C(=O)OC)c(C(c2ccccc2)c2ccccc2)n(-c2ccccc2)c1Cl | > 10 µM
* C=C1CC(COc2ccc3ccc(=O)oc3c2)(c2ccccc2)OC1=O (stereo not given) | 6.77 µM
* CN(CCO)c1nc2c(c(=O)[nH]1)CNCC2 | > 100 µM
* CCCCCNC1=CC(=O)c2ccccc2C1=O | > 95.3 µM
* C=CCN(N=O)C(=O)N(CCC)CCCCC(NC(C)=O)C(=O)NCc1ccccc1 (stereo not given) | > 100 µM
* CCCCCCCCCCCC(=O)OCC1OC(n2cc(F)c(=O)[nH]c2=O)C(N)C(O)C1O (stereo not given) | > 100 µM
* COc1ccccc1NC(=O)C1=C(C)NC(C)=C(C(=O)Nc2ccccc2OC)C1c1ccccc1OC | > 100 µM
* C#C[C@@]1(O)[C@@H](CO)O[C@@H](n2cc(F)c3c(N)ncnc32)[C@@H]1O | 1.81 µM
* O=C(O)c1cccc(CC(Br)C(=O)O)c1 (stereo not given) | > 100 µM
* COC1/C=C\OC2(C)Oc3c(C)c(O)c4c(O)c(c(CN(C)C)c(O)c4c3C2=O)NC(=O)/C(C)=C\C=C/C(C)C(O)C(C)C(O)C(C)C(OC(C)=O)C1C (stereo not given) | 39.3 µM
* NC(=O)c1cc(C2OC(CO)C(O)C2O)nn1-c1ccc([N+](=O)[O-])cc1 (stereo not given) | > 100 µM
* COC1CC2CCC(C)[C@](O)(O2)C(=O)C(=O)N2CCCCC2C(=O)OC(C(C)CC2CCC(O)C(OC)C2)CC(=O)C(C)C=C(C)C(OC(=O)CN(C)C)C(OC)C(=O)C(C)CC(C)/C=C/C=C/C=C\1C (stereo not given in full) | 20.4 µM
* NC(=O)Oc1cc(OC(N)=O)cc(N(CCCl)CCCl)c1 | 23.3 µM
* Nc1ccc(Oc2ccc(C3(c4ccc(Oc5ccc(N)c(O)c5)cc4)C4CC5C6CC7CC5C3C(C7)C6C4)cc2)cc1O | > 24.2 µM
* NC(=O)NC(=O)c1ccc(NC(=O)CBr)cc1 | 3.96 µM
